Below is a list of entries, each paired with its recorded H1.0 immunofluorescence intensity value.
- System: TDF;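 further: TDF is a line of transformed human dermal fibroblasts of mesenchymal origin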
- experimentalProtocol: H1.0 immunofluorescence intensity relative to DMSO (% of DMSO); higher = stronger H1.0 induction, active = 120 or more
- conditionLabel: concentration: 10 µM; 24 h

[
  {
    "compound": "O=c1c(OC2OC(C(O)CO)C(O)C2O)c(-c2ccc(O)c(O)c2)oc2cc(O)cc(O)c12 (stereo not drawn)",
    "H1.0 immunofluorescence intensity": 102
  },
  {
    "compound": "Cl.Clc1cccc(Cl)c1NC1=NCCN1 [Clonidine.HCl]",
    "H1.0 immunofluorescence intensity": 84.7
  },
  {
    "compound": "CN1c2cc3c(cc2N=C(c2ccc(C(=O)O)cc2)c2ccccc21)C(C)(C)CCC3(C)C",
    "H1.0 immunofluorescence intensity": 93.8
  },
  {
    "compound": "CN(C)c1nc(N)c(C(=O)N=C(N)N)nc1Cl.Cl [5-(N,N-Dimethyl)amiloride hydrochloride]",
    "H1.0 immunofluorescence intensity": 96.1
  },
  {
    "compound": "CC(C)C(CO)Nc1nc(Nc2cc(N)cc(Cl)c2)c2ncn(C(C)C)c2n1 (stereo not drawn) [Aminopurvalanol A]",
    "H1.0 immunofluorescence intensity": 97.4
  },
  {
    "compound": "CCCCCCCCCCCC1=C(O)C(=O)C=C(O)C1=O",
    "H1.0 immunofluorescence intensity": 97.6
  },
  {
    "compound": "COc1ccc(-c2coc3cc(O)cc(O)c3c2=O)cc1",
    "H1.0 immunofluorescence intensity": 93.9
  },
  {
    "compound": "NC(N)=Nc1nc(CSCCC(N)=NS(N)(=O)=O)cs1",
    "H1.0 immunofluorescence intensity": 94.4
  }
]

---

- Tested on: HCC1569;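 further: TDF denotes transformed human dermal fibroblasts of mesenchymal origin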
- experimentalProtocol: cell number relative to DMSO (% of DMSO); higher = more cells (less growth inhibition / toxicity)
- conditionLabel: concentration: 10 µM; 24 h
measureName: cell number

[
  {
    "compound": "O=C(NCCO)c1cccc(-c2cc(Nc3ccc(OC(F)(F)F)cc3)ncn2)c1",
    "measureName": "cell number",
    "endpointResult": 91.1
  },
  {
    "compound": "CC(N)=NCCC[C@H](N)C(=O)O.Cl [L-N5-(1-Iminoethyl)ornithine hydrochloride]",
    "measureName": "cell number",
    "endpointResult": 101
  },
  {
    "compound": "Cn1c(=O)c2[nH]cnc2n(C)c1=O.Cn1c(=O)c2[nH]cnc2n(C)c1=O.NCCN",
    "measureName": "cell number",
    "endpointResult": 103
  },
  {
    "compound": "CC[C@H](C)C(=O)O[C@H]1C[C@H](O)C=C2C=C[C@H](C)[C@H](CC[C@@H](O)C[C@@H](O)CC(=O)[O-])[C@H]21.[Na+]",
    "measureName": "cell number",
    "endpointResult": 101
  },
  {
    "compound": "CC(C)(CCCCCCCCCCC(C)(C)CC(=O)O)CC(=O)O",
    "measureName": "cell number",
    "endpointResult": 102
  },
  {
    "compound": "Nc1c2c(nc3ccccc13)CCCC2",
    "measureName": "cell number",
    "endpointResult": 102
  },
  {
    "compound": "CC1CCN(C(=O)CC#N)CC1N(C)c1ncnc2[nH]ccc12 (centres undefined)",
    "measureName": "cell number",
    "endpointResult": 110
  },
  {
    "compound": "O=C(O)c1cc(=O)c2c(Cl)cc(Cl)cc2[nH]1",
    "measureName": "cell number",
    "endpointResult": 102
  },
  {
    "compound": "CCCCCCCCCCCC=CCCCCC(=O)O [6(E)-Octadecenoic acid]",
    "measureName": "cell number",
    "endpointResult": 100
  },
  {
    "compound": "Nn1nnc2ccccc21",
    "measureName": "cell number",
    "endpointResult": 106
  },
  {
    "compound": "CS(=O)(=O)O.O=C1Nc2ccc(-c3cccnc3)cc2C1=Cc1ccc[nH]1",
    "measureName": "cell number",
    "endpointResult": 73
  },
  {
    "compound": "COC12C(COC(N)=O)C3=C(C(=O)C(C)=C(N)C3=O)N1CC1NC12 (centres undefined)",
    "measureName": "cell number",
    "endpointResult": 73.2
  },
  {
    "compound": "O=C1C(=O)C(c2ccc(O)c(O)c2)Oc2cc(O)cc(O)c21 (centres undefined) [2-(3,4-dihydroxyphenyl)-3,5,7-trihydroxy-4H-chromen-4-one]",
    "measureName": "cell number",
    "endpointResult": 81.2
  },
  {
    "compound": "Cc1c[nH]c(C=C2C(=O)Nc3ccccc32)c1CCC(=O)O",
    "measureName": "cell number",
    "endpointResult": 101
  },
  {
    "compound": "O=C(Nc1ccc(-c2cn[nH]c2)cc1)C1COc2ccccc2O1 (centres undefined)",
    "measureName": "cell number",
    "endpointResult": 107
  },
  {
    "compound": "O=c1cc(N2CCOCC2)oc2c(-c3ccccc3)cccc12",
    "measureName": "cell number",
    "endpointResult": 83.3
  },
  {
    "compound": "CNc1nc(-c2ccc3c(N)n[nH]c3c2)cc(N2C[C@@H](C(=O)NC3CCCCC3)CC[C@H]2C)n1",
    "measureName": "cell number",
    "endpointResult": 52.3
  },
  {
    "compound": "O=c1cc(O)cc(C=Cc2ccc(O)c(O)c2)o1",
    "measureName": "cell number",
    "endpointResult": 97.3
  },
  {
    "compound": "CC(C)=CCC(O)C1=CC(=O)c2c(O)ccc(O)c2C1=O (centres undefined)",
    "measureName": "cell number",
    "endpointResult": 27
  },
  {
    "compound": "CCCSc1ccc2nc(NC(=O)OC)[nH]c2c1",
    "measureName": "cell number",
    "endpointResult": 61.4
  },
  {
    "compound": "CC1=C(C(=O)Nc2cc3cn[nH]c3cc2F)C(c2ccc(C(F)(F)F)cc2)CC(=O)N1 (centres undefined)",
    "measureName": "cell number",
    "endpointResult": 113
  },
  {
    "compound": "COc1cc(-c2oc3cc(O)cc(O)c3c(=O)c2OC2OC(CO)C(O)C(O)C2O)cc(OC)c1O (centres undefined) [Syringetine-3-glucoside]",
    "measureName": "cell number",
    "endpointResult": 102
  },
  {
    "compound": "CCCOc1ccc2nc(NC(=O)OC)[nH]c2c1",
    "measureName": "cell number",
    "endpointResult": 62.8
  },
  {
    "compound": "O=C1NC(=O)C(=Cc2ccc(-c3ccc(F)cc3O)o2)S1",
    "measureName": "cell number",
    "endpointResult": 97.3
  },
  {
    "compound": "CCCCCCCCCCCCCCCCCCOCC(COP(=O)([O-])OCC[N+](C)(C)C)OC (centres undefined)",
    "measureName": "cell number",
    "endpointResult": 105
  },
  {
    "compound": "C=CC1CN2CCC1CC2C(O)c1ccnc2ccc(OC)cc12.Cl.O (centres undefined)",
    "measureName": "cell number",
    "endpointResult": 99.6
  },
  {
    "compound": "CCOc1ccc2c(c1)C(C)=CC(C)(C)N2",
    "measureName": "cell number",
    "endpointResult": 100
  },
  {
    "compound": "CC(C)n1cnc2c(NCc3ccccc3)nc(NCCCO)nc21",
    "measureName": "cell number",
    "endpointResult": 91.4
  },
  {
    "compound": "Cl.O=C(NCCCCN1CCN(c2cccc(Cl)c2Cl)CC1)c1ccc2c(c1)Cc1ccccc1-2",
    "measureName": "cell number",
    "endpointResult": 93.5
  },
  {
    "compound": "CC(=O)NCC1CN(c2ccc(N3CCOCC3)c(F)c2)C(=O)O1 (centres undefined)",
    "measureName": "cell number",
    "endpointResult": 104
  },
  {
    "compound": "CC(N)(Cc1ccc(O)cc1)C(=O)O [L-alpha-Methyl-p-tyrosine]",
    "measureName": "cell number",
    "endpointResult": 107
  },
  {
    "compound": "O=C1NC(=O)C(c2ccccc2)(c2ccccc2)N1",
    "measureName": "cell number",
    "endpointResult": 104
  },
  {
    "compound": "NC(Cc1cccc(-c2ccccc2CP(=O)(O)O)c1)C(=O)O (centres undefined)",
    "measureName": "cell number",
    "endpointResult": 99.4
  },
  {
    "compound": "CCn1c(-c2nonc2N)nc2c(C#CC(C)(C)O)ncc(OCC3CCCNC3)c21 (centres undefined)",
    "measureName": "cell number",
    "endpointResult": 72.9
  }
]
